# Test system: 945468-187-T-J2-PDC spheroids viability
# assay.method.text: Anticancer human tumor 945468-187-T-J2-PDC patient-derived rectal carcinoma cell line growth inhibition [PI3K]
# measurement.conditions: curve of first compound; second compound 10 µM; spheroids with HUVEC and MSC
pIC50: −log10 of the molar value.
endpoint.name: pIC50

Cn1ncnc1[C@H]1c2n[nH]c(=O)c3cc(F)cc(c23)N[C@@H]1c1ccc(F)cc1 + CC(Nc1ncnc2nc[nH]c12)c1cc2cccc(Cl)c2c(=O)n1-c1ccccc1 :: < 7.00
CC(C)n1nc(-c2ccc3oc(N)nc3c2)c2c(N)ncnc21 + CC(Nc1ncnc2nc[nH]c12)c1cc2cccc(Cl)c2c(=O)n1-c1ccccc1 :: < 7.00

Hey, can you go through the list below and give me pIC50 for every item?
1. C=CC(=O)N1CCN(c2nc(=O)n(-c3c(C)ccnc3C(C)C)c3nc(-c4c(O)cccc4F)c(F)cc23)C(C)C1 (stereo unspecified) + CC(Nc1ncnc2nc[nH]c12)c1cc2cccc(Cl)c2c(=O)n1-c1ccccc1
2. CC1(C)CCC(CN2CCN(c3ccc(C(=O)NS(=O)(=O)c4ccc(NCC5CCOCC5)c([N+](=O)[O-])c4)c(Oc4cnc5[nH]ccc5c4)c3)CC2)=C(c2ccc(Cl)cc2)C1 + CC(Nc1ncnc2nc[nH]c12)c1cc2cccc(Cl)c2c(=O)n1-c1ccccc1
3. CC(=O)c1c(C)c2cnc(Nc3ccc(N4CCNCC4)cn3)nc2n(C2CCCC2)c1=O + Cc1nc(NC(=O)N2CCCC2C(N)=O)sc1-c1ccnc(C(C)(C)C(F)(F)F)c1
4. Cn1nccc1Nc1nccc(-c2ccn(C(CO)c3ccc(Cl)c(F)c3)c(=O)c2)n1 (stereo unspecified) + Cc1nc(NC(=O)N2CCCC2C(N)=O)sc1-c1ccnc(C(C)(C)C(F)(F)F)c1
5. CCCS(=O)(=O)Nc1ccc(F)c(C(=O)c2c[nH]c3ncc(-c4ccc(Cl)cc4)cc23)c1F + Cc1nc(NC(=O)N2CCCC2C(N)=O)sc1-c1ccnc(C(C)(C)C(F)(F)F)c1
6. Cn1cnc2c(F)c(Nc3ccc(Br)cc3Cl)c(C(=O)NOCCO)cc21 + CC(Nc1ncnc2nc[nH]c12)c1cc2cccc(Cl)c2c(=O)n1-c1ccccc1

result:
["< 5.00", "< 5.00", "< 7.00", "< 5.00", 5.35, "< 5.52"]

###

# Tested on: 945468-187-T-J2-PDC spheroids viability
# assay.method.text: Anticancer human tumor 945468-187-T-J2-PDC cell line growth inhibition [PI3K];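 note: spheroids exposed to compounds for seven days before reading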
# measurement.conditions: curve of first compound; second compound 0.1 µM; spheroids with HUVEC and MSC
pIC50: −log10 of the molar value.
Answer each item with its documented pIC50.

C#Cc1c(F)ccc2cc(O)cc(-c3ncc4c(N5CC6CCC(C5)N6)nc(OCC56CCCN5CC(F)C6)nc4c3F)c12 (stereo not drawn) + Cc1nc(NC(=O)N2CCCC2C(N)=O)sc1-c1ccnc(C(C)(C)C(F)(F)F)c1 :: < 5.00
CC(C)NCC(C(=O)N1CCN(c2ncnc3c2C(C)CC3O)CC1)c1ccc(Cl)cc1 (stereo not drawn) + CC(Nc1ncnc2nc[nH]c12)c1cc2cccc(Cl)c2c(=O)n1-c1ccccc1 :: < 5.00
CC(C)n1nc(-c2ccc3oc(N)nc3c2)c2c(N)ncnc21 + Cc1nc(NC(=O)N2CCCC2C(N)=O)sc1-c1ccnc(C(C)(C)C(F)(F)F)c1 :: < 7.00
CC(=O)c1c(C)c2cnc(Nc3ccc(N4CCNCC4)cn3)nc2n(C2CCCC2)c1=O + COc1c(OCCCN2CCOCC2)ccc2c3n(c(=NC(=O)c4cnc(N)nc4)nc12)CCN3 :: < 7.00
Cn1cnc2c(F)c(Nc3ccc(Br)cc3Cl)c(C(=O)NOCCO)cc21 + COc1c(OCCCN2CCOCC2)ccc2c3n(c(=NC(=O)c4cnc(N)nc4)nc12)CCN3 :: 6.18

Hey, can you go through the list below and give me pIC50 for every item?
1. CC(Cn1ccc(-c2ccc(C#N)c(Cl)c2)n1)NC(=O)c1cc(C(C)O)[nH]n1 (stereo not drawn) + CC(Nc1ccc2c(c1)OCCn1cc(N3C(=O)OCC3C(F)F)nc1-2)C(N)=O
2. CC1(C)CCC(Nc2ncc(C(F)(F)F)c(-c3c[nH]c4c(P(C)(C)=O)c(C#N)ccc34)n2)CN1 (stereo not drawn) + Cc1nc(NC(=O)N2CCCC2C(N)=O)sc1-c1ccnc(C(C)(C)C(F)(F)F)c1
3. Cn1ncnc1[C@H]1c2n[nH]c(=O)c3cc(F)cc(c23)N[C@@H]1c1ccc(F)cc1 + COc1c(OCCCN2CCOCC2)ccc2c3n(c(=NC(=O)c4cnc(N)nc4)nc12)CCN3
4. C#Cc1c(F)ccc2cc(O)cc(-c3ncc4c(N5CC6CCC(C5)N6)nc(OCC56CCCN5CC(F)C6)nc4c3F)c12 (stereo not drawn) + CC(Nc1ccc2c(c1)OCCn1cc(N3C(=O)OCC3C(F)F)nc1-2)C(N)=O
5. CC(C)NCC(C(=O)N1CCN(c2ncnc3c2C(C)CC3O)CC1)c1ccc(Cl)cc1 (stereo not drawn) + Cc1nc(NC(=O)N2CCCC2C(N)=O)sc1-c1ccnc(C(C)(C)C(F)(F)F)c1
6. CCN1CCN(Cc2ccc(Nc3ncc(F)c(-c4cc(F)c5nc(C)n(C(C)C)c5c4)n3)nc2)CC1 + Cc1nc(NC(=O)N2CCCC2C(N)=O)sc1-c1ccnc(C(C)(C)C(F)(F)F)c1

result:
["< 5.00", 5.67, "< 7.00", "< 5.00", "< 5.00", "< 6.00"]

Hey, can you go through the list below and give me pIC50 for every item?
1. C[C@@H](NC(=O)c1ncnc(N)c1Cl)c1ncc(C(=O)Nc2cc(C(F)(F)F)c(Cl)cn2)s1 + CC(Nc1ccc2c(c1)OCCn1cc(N3C(=O)OCC3C(F)F)nc1-2)C(N)=O
2. CNC(=O)c1ccc(N2C(=S)N(c3ccc(C#N)c(C(F)(F)F)c3)C(=O)C2(C)C)cc1F + COc1c(OCCCN2CCOCC2)ccc2c3n(c(=NC(=O)c4cnc(N)nc4)nc12)CCN3

result:
1. < 5.00
2. < 5.00

###

# Tested on: 945468-187-T-J2-PDC spheroids viability
# assay.method.text: Anticancer human tumor 945468-187-T-J2-PDC cell line growth inhibition [PI3K];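 note: spheroids exposed to compounds for seven days before reading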
# measurement.conditions: second compound 0.0316 µM; first compound 10 µM; stronger effect = lower value; spheroids with HUVEC and MSC
Please assign not fulfilled whenever viability, T/C is at or above 90%, and fulfilled whenever it is below.

Use the examples below as a reference point.
Cn1nccc1Nc1nccc(-c2ccn(C(CO)c3ccc(Cl)c(F)c3)c(=O)c2)n1 (stereo not given) + Cc1nc(NC(=O)N2CCCC2C(N)=O)sc1-c1ccnc(C(C)(C)C(F)(F)F)c1 :: fulfilled
CCCS(=O)(=O)Nc1ccc(F)c(C(=O)c2c[nH]c3ncc(-c4ccc(Cl)cc4)cc23)c1F + CC(Nc1ncnc2nc[nH]c12)c1cc2cccc(Cl)c2c(=O)n1-c1ccccc1 :: fulfilled
CCCS(=O)(=O)Nc1ccc(F)c(C(=O)c2c[nH]c3ncc(-c4ccc(Cl)cc4)cc23)c1F + CC(Nc1ccc2c(c1)OCCn1cc(N3C(=O)OCC3C(F)F)nc1-2)C(N)=O :: fulfilled
C=CC(=O)N1CCN(c2nc(=O)n(-c3c(C)ccnc3C(C)C)c3nc(-c4c(O)cccc4F)c(F)cc23)C(C)C1 (stereo not given) + Cc1nc(NC(=O)N2CCCC2C(N)=O)sc1-c1ccnc(C(C)(C)C(F)(F)F)c1 :: not fulfilled
CNC(=O)c1ccc(N2C(=S)N(c3ccc(C#N)c(C(F)(F)F)c3)C(=O)C2(C)C)cc1F + CC(Nc1ncnc2nc[nH]c12)c1cc2cccc(Cl)c2c(=O)n1-c1ccccc1 :: fulfilled

Next:
query: # TODO verify viability, T/C < 90% strictly for this molecule: C#Cc1c(F)ccc2cc(O)cc(-c3ncc4c(N5CC6CCC(C5)N6)nc(OCC56CCCN5CC(F)C6)nc4c3F)c12 (stereo not given) + CC(Nc1ncnc2nc[nH]c12)c1cc2cccc(Cl)c2c(=O)n1-c1ccccc1
result: not fulfilled

###

# Test system: 945468-187-T-J2-PDC spheroids viability
# assay.method.text: Anticancer human tumor 945468-187-T-J2-PDC cell line growth inhibition [PI3K];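 note: spheroids exposed to compounds for seven days before reading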
# measurement.conditions: curve of first compound; second compound 10 µM; spheroids with HUVEC and MSC
# Excerpt: Combinatorial screen of targeted agents with the PI3K inhibitors inavolisib, alpelisib, duvelisib, and copanlisib in multi-cell type tumor spheroids A high-throughput screen of multi-cell type tumor spheroids was designed to identify active combinations of targeted small molecules and PI3K pathway inhibitors. […] Compounds. […] If the clinical Cmax for an agent had not been determined, the highest concentration tested was 10 microM. […]
Answer each item with its documented IC50.

Record excerpt, results attached:
CNC(=O)c1ccc(N2C(=S)N(c3ccc(C#N)c(C(F)(F)F)c3)C(=O)C2(C)C)cc1F + CC(Nc1ncnc2nc[nH]c12)c1cc2cccc(Cl)c2c(=O)n1-c1ccccc1 :: > 10 µM
C#Cc1c(F)ccc2cc(O)cc(-c3ncc4c(N5CC6CCC(C5)N6)nc(OCC56CCCN5CC(F)C6)nc4c3F)c12 (stereo not given) + Cc1nc(NC(=O)N2CCCC2C(N)=O)sc1-c1ccnc(C(C)(C)C(F)(F)F)c1 :: > 10 µM
C#Cc1c(F)ccc2cc(O)cc(-c3ncc4c(N5CC6CCC(C5)N6)nc(OCC56CCCN5CC(F)C6)nc4c3F)c12 (stereo not given) + CC(Nc1ncnc2nc[nH]c12)c1cc2cccc(Cl)c2c(=O)n1-c1ccccc1 :: > 10 µM

Hey, can you go through the list below and give me IC50 for every item?
1. C[C@@H](NC(=O)c1ncnc(N)c1Cl)c1ncc(C(=O)Nc2cc(C(F)(F)F)c(Cl)cn2)s1 + CC(Nc1ncnc2nc[nH]c12)c1cc2cccc(Cl)c2c(=O)n1-c1ccccc1
2. C=CC(=O)N1CCN(c2nc(=O)n(-c3c(C)ccnc3C(C)C)c3nc(-c4c(O)cccc4F)c(F)cc23)C(C)C1 (stereo not given) + Cc1nc(NC(=O)N2CCCC2C(N)=O)sc1-c1ccnc(C(C)(C)C(F)(F)F)c1

result:
1: > 10 µM; 2: > 10 µM
